Target: PD-1/PD-L1 interaction (Homo sapiens)
Sequence (Q9NZQ7 19-238 limits assumed): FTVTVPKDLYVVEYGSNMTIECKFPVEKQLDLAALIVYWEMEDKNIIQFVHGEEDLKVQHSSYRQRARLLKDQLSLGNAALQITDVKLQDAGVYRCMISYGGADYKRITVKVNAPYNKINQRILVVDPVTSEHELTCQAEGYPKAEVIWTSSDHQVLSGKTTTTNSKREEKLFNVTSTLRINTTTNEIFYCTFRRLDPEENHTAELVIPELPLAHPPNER
Test: In vitro PD-1/PD-L1-binding assay (Cisbio kit)
Protocol: The biochemical activity of the final compounds was evaluated using a PD-1/PD-L1 binding assay kit (Cisbio, cat. No. 64ICP01PEG). Experiments were performed according to the manufacturer’s instructions.
QUANTITY MEASURED: pIC50
Entry type: numeric. Quantity: pIC50, the -log10 of concentration in molar units.

Noted for CCN(CC)CCCOc1cccc(-c2cccc3c2CCN3C(=O)c2ncc(CNC(=NC#N)Nc3ccncc3)s2)c1 [LZFPN-90] : its pIC50 reads 7.89
